- Tgt: T1, recombinant human CD3 epsilon/gamma heterodimer (human, UniProt P07766 23-126; P09693 23-116)
- T1 construct: Recombinant protein in solution (200-50 nM) in the Octet assay; also called hCD3 E/G
- Experiment description: Octet BLI, mAb on FAB2G sensor, hCD3 E/G 200-50 nM; R^2 0.98
Measure name: pKd
// pKd is dimensionless: -log10 of concentration (M)

// query // returns reported pKd for input ABL-CD3-60 (antibody, V domains shown, Chimeric hybridoma mAb: human V, CH1, upper hinge; mouse middle hinge, CH2, CH3) VH: EVQLVESGGGLVKPGGSLRLSCAASGFTFSIYSMNWVRQAPGKGLEWVSSISSGSSYIYYADSVKGRFTISRDNAKSSLFLQMNSLRAEDTAVYYCAREKRELLFDYWGQGTLVTVSS VL: NFMLTQPHSVSESPGKTVTISCTRSSGSIASNYVQWYQQRPGSSPTTVIYEDNQRPSGVPDRFSGSIDRSSNSASLTISGLKTEDEADYYCQSYDSSNRVFGGGTKLTVL
// result 7.04

// query Field request: pKd | item: ABL-CD3-46 (antibody, V domains shown, Chimeric hybridoma mAb: human V, CH1, upper hinge; mouse middle hinge, CH2, CH3) VH: EVQLVESGGGLVKPGGSLRLSCSASGFTFSTYTMNWVRQAPGKGLDWVSSISKSSTYIYYADSVKGRFTISRDNAKNSLYLQMNSLRAEDTAVYYCARERRTLAFDIWGQGTMVTVSS VL: NFMLTQPHSVSESPGKTVTISCTRSSGSIASNYVQWYQQRPGSSPTTVIYEDNQRPSGVPDRFSGSIDSSSNSASLTISGLKTEDEADYYCQCYDRSNRVFGGGTKLTVL
// result 7.79

Now consider the entry below.
// query pKd lookup needed for ABL-CD3-63 (antibody, V domains shown, Chimeric hybridoma mAb: human V, CH1, upper hinge; mouse middle hinge, CH2, CH3) VH: QVQLQESGPGLVKPSETLSLTCTVSGGSISSYYWSWIRQPAGKGLEWIGRIYTSGSTKYNPSLKSRVTMSVDTSKNQFSLKLISVTAADTAVYFCARERIRDLYFDYWGQGTLVTVSS VL: NFMLTQPHSVSESPGKTVTISCTRTSGSIASNYVQWYQQRPGSSPTTVIYEDNQRPSGVPDRFSGSIDSSSNSASLTISGLKTEDEAAYYCQSYDRSNRVFGGGTKLTVL , thanks.
// result 7.04
